targetDesc: T1, human 4-1BB expressed on cells (human, UniProt Q07011 24-255)
T1 construct: whole, on cells; also called CHO-K1/hu4-1BB; cell surface human 4-1BB
T1 sequence (Q07011 24-255): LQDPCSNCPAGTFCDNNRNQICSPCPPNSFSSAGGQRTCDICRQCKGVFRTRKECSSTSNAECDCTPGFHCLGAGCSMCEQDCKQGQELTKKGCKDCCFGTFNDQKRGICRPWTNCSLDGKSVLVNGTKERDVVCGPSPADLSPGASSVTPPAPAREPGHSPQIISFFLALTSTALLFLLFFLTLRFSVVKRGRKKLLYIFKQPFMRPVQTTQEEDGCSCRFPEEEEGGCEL
procedureSummary: flow cytometry on CHO-K1/hu4-1BB cells, anti-human Fc-Alexa Fluor 633
Description: To evaluate the antigen binding property in a cell-based setting, the 4-1BB humanized nanobodies were analyzed for their binding to 4-1BB overexpressed on CHO-K1 cells by FACS. Briefly, CHO-K1 cells overexpressing human 4-1BB or cynomolgus 4-1BB were incubated with the serial diluted anti-4-1BB nanobodies for 30 min at 4° C. Then, the cells were incubated with Alexa Fluor 633-conjugated anti-human Fc secondary antibody. Binding was measured with an Agilent flow cytometer.
Listed below: Max (MFI) values for each entry.
Answer in MFI, number only, no unit symbol.

Example entries and their recorded answers appear below.
VV02-1LP-263 huNb_3_3 (Fc fusion, detection by anti-human Fc; not shown: Fc part, implied only by the anti-human Fc secondary antibody) VHH: QVQLVESGGGLVQPGGSLRLSCAASGFTFSSSAMSWARQAPGKGFEWVSGIYSGGSTYYTESVKDRFTISRDNAKNSVYLQMNSLKPEDTAVYYCATWGTLRFGVWAEYDHWGQGTQVTVSS
40300
VV02-1LP-263 huNb_2_3 (Fc fusion, not shown: a dimerising Fc or GST, detection by anti-human Fc) VHH: EVQLVESGGGLVQPGGSLRLSCAASGFTFSSSAMSWARQAPGKGFEWVSGIYSGGSTYYTESVKDRFTISRDNAKNTVYLQMNSLKPEDTAVYYCATWGTLRFGVWAEYDHWGQGTLVTVSS
39100
VV02-1LP-263 huNb_1_3 (Fc fusion, not shown: a dimerising Fc or GST, detection by anti-human Fc) VHH: EVQLLESGGGLVQPGGSLRLSCAASGFTFSSSAMSWARQTPGKGFEWVSGIYSGGSTYYTESVKDRFTISRDNSKNTVYLQMNSLKPEDTAVYYCATWGTLRFGVWAEYDHWGQGTQVTVSS
42100

Consider the additional binder presented here.
Enquiry: For the binder shown here, VV02-1LP-263 huNb_3_2 (Fc fusion, not shown: a dimerising Fc or GST, detection by anti-human Fc) VHH: QVQLVESGGGLVKPGGSLRLSCAASGFTFSSSAMSWARQAPGKGFEWVSGIYSGGSTYYTESVKDRFTISRDNAKNSLYLQMNSLRPEDTAVYYCATWGTLRFGVWAEYDHWGQGTQVTVSS , give the reported Max (MFI).
Return: 38000
